Tested on: large crabgrass (Digitaria sanguinalis)
test: Test A pre-/postemergence plant response
Format: in vivo
experimental_context: Preemergence, 125 g ai/ha; 0 to 100 scale (0 no effect, 100 complete control)
# maps each entry to its Plant response rating, Crabgrass, Large
measurement_name: Plant response rating, Crabgrass, Large

# structure_string, measurement_name, result
rows = [
    ("COc1nn(C)c(=O)c(-n2nc(-c3ccc(Br)cc3)cc2C)c1O", "Plant response rating, Crabgrass, Large", 100),
    ("C#CCOC(=O)Oc1cnn(C)c(=O)c1-n1nc(-c2ccc(Cl)cc2)cc1C", "Plant response rating, Crabgrass, Large", 90),
    ("CCc1cc(-c2ccc(C(F)(F)F)cc2)nn1-c1c(OC(=O)c2ccc(Cl)nc2)cnn(C)c1=O", "Plant response rating, Crabgrass, Large", 100),
    ("Cc1cc(-c2ccc(Cl)cc2)nn1-c1c(OC(=S)N(C)C)cnn(C)c1=O", "Plant response rating, Crabgrass, Large", 90),
]
